Cited source: patent USRE39591E1

tested on: up to 32 different microorganisms; test: in vitro antibacterial activity (MIC), agar dilution on Brain Heart Infusion (BHI) agar with Steers replicator; type: cell-based; details: Streptococcus Pneumonia ATCC6303 (code XX); unit assumed
measured-quantity: log10(MIC) (log10 of the value in µg/mL)
Units before log transform: µg/mL; reported quantity: MIC; transform: log10.

Dear colleague, I am looking for the recorded log10(MIC) of the following compound: CC[C@H]1OC(=O)[C@H](C)C(=O)[C@H](C)[C@@H](O[C@@H]2O[C@H](C)C[C@H](N(C)C)[C@H]2O)[C@@](C)(OCCCc2cnc3ccccc3c2)C[C@@H](C)C2=NCCN3C(=O)O[C@@]1(C)[C@H]3[C@H]2C
-1.52

Which log10(MIC) is listed for C=CCOC1(C)CC(C)C(=O)C(C)C(O)C(C)(O)C(CC)OC(=O)C(C)C(=O)C(C)C1OC1OC(C)CC(N(C)C)C1O (stereo not drawn) ?
0.60

Looking for the measured log10(MIC) of CC[C@H]1OC(=O)[C@H](C)C(=O)[C@H](C)[C@@H](O[C@@H]2O[C@H](C)C[C@H](N(C)C)[C@H]2O)[C@@](C)(OCC=Cc2ccc(F)cc2)C[C@@H](C)C(=O)[C@H](C)[C@@H](O)[C@]1(C)O , can you help?
0.00

Which log10(MIC) is listed for CC[C@H]1OC(=O)[C@H](C)C(=O)[C@H](C)[C@@H](O[C@@H]2O[C@H](C)C[C@H](N(C)C)[C@H]2O)[C@@](C)(OCC=Cc2cnc3ccccc3c2)C[C@@H](C)C(=O)[C@H](C)[C@H]2OC(=O)O[C@@]21C ?
-1.52

State the recorded log10(MIC) for this entry: CCC1OC(=O)C(C)C(=O)C(C)C(OC2OC(C)CC(N(C)C)C2O)C(C)(OCC=Cc2cncc3ccccc23)CC(C)C(=O)C(C)C2NC(=O)OC12C (stereo not drawn)
-1.52

Need log10(MIC) for each of these compounds.
1. CCC1OC(=O)C(C)C(=O)C(C)C(OC2OC(C)CC(N(C)C)C2O)C(C)(OCC=Cc2ccc3ccccc3c2)CC(C)C(=O)C(C)C2NC(=O)OC12C (stereo not drawn)
2. C=CCOC1(C)CC(C)C(=O)C(C)C2N(CC=C)C(=O)OC2(C)C(CC)OC(=O)C(C)C(=O)C(C)C1OC1OC(C)CC(N(C)C)C1O (stereo not drawn)
3. CCC1OC(=O)C(C)C(=O)C(C)C(OC2OC(C)CC(N(C)C)C2O)C(C)(OCC=Cc2ccc3[nH]ccc3c2)CC(C)C(=O)C(C)C2NC(=O)OC12C (stereo not drawn)
4. CC[C@H]1OC(=O)[C@H](C)C(=O)[C@H](C)[C@@H](O[C@@H]2O[C@H](C)C[C@H](N(C)C)[C@H]2O)[C@@](C)(OCC=Cc2cnc3ccccc3c2)C[C@@H](C)C(=O)[C@H](C)[C@H]2N(C)C(=O)O[C@]12C

1: -1.52; 2: 0.30; 3: -1.22; 4: -1.52

====

test system: up to 32 different microorganisms; experiment: in vitro antibacterial activity (MIC), agar dilution on Brain Heart Infusion (BHI) agar with Steers replicator; assay type: cell-based; conditions: Escherichia coli JUHL (code QQ); unit assumed
Provide the recorded MIC for the entries that follow.

In the examples that follow, each entry is paired with its recorded MIC.
Quick one: MIC of CC[C@H]1OC(=O)[C@H](C)C(=O)[C@H](C)[C@@H](O[C@@H]2O[C@H](C)C[C@H](N(C)C)[C@H]2O)[C@@](C)(OCC=Cc2ccccc2)C[C@@H](C)C(=O)[C@H](C)[C@@H](O)[C@]1(C)O [Example 14] ?
> 100 µg/mL

Entry CC[C@H]1OC(=O)[C@H](C)C(=O)[C@H](C)[C@@H](O[C@@H]2O[C@H](C)C[C@H](N(C)C)[C@H]2O)[C@@](C)(OCC=Cc2cnc3ccccc3c2)C[C@@H](C)C(=O)[C@H](C)[C@H]2OC(=O)O[C@@]21C [Example 75] : reported MIC = ?
50 µg/mL

Please report MIC for every entry that follows.
1. CC[C@H]1OC(=O)[C@H](C)C(=O)[C@H](C)[C@@H](O[C@@H]2O[C@H](C)C[C@H](N(C)C)[C@H]2O)[C@@](C)(OCC=Cc2cnc3ccccc3c2)C[C@@H](C)C(=O)[C@H](C)[C@H]2N(C)C(=O)O[C@]12C [Example 180]
2. CC[C@H]1OC(=O)[C@H](C)C(=O)[C@H](C)[C@@H](O[C@@H]2O[C@H](C)C[C@H](N(C)C)[C@H]2O)[C@@](C)(OCCNCc2ccncc2)C[C@@H](C)C(=O)[C@H](C)[C@@H](O)[C@]1(C)O [Example 12]

1. > 100 µg/mL
2. > 100 µg/mL

====

test system: up to 32 different microorganisms; assay: in vitro antibacterial activity (MIC), agar dilution on Brain Heart Infusion (BHI) agar with Steers replicator; format: cell-based; settings: organism code EE; unit assumed
measured-quantity: MIC (µg/mL)
Numbers only, in µg/mL.

These solved cases illustrate the format of a correct answer.
# MIC lookup, item CC[C@H]1OC(=O)[C@H](C)C(=O)[C@H](C)[C@@H](O[C@@H]2O[C@H](C)C[C@H](N(C)C)[C@H]2O)[C@@](C)(OCC=NOc2ccccc2)C[C@@H](C)C(=O)[C@H](C)[C@H]2NC(=O)O[C@@]21C
0.78

For CCC1OC(=O)C(C)C(=O)C(C)C(OC2OC(C)CC(N(C)C)C2O)C(C)(OCC=Cc2ccc3ncc(-c4ccccc4)cc3c2)CC(C)C(=O)C(C)C2NC(=O)OC12C (stereo not drawn) , what is its reported MIC?
0.2

If you can, please state the reported MIC value of CC[C@H]1OC(=O)[C@H](C)C(=O)[C@H](C)[C@@H](O[C@@H]2O[C@H](C)C[C@H](N(C)C)[C@H]2O)[C@@](C)(OCC#Cc2ccc3cc(Cl)ccc3c2)C[C@@H](C)C(=O)[C@H](C)[C@H]2NC(=O)O[C@@]21C .
0.1

Each molecule below has a reported value. Please supply its MIC.
1. CC[C@H]1OC(=O)[C@H](C)C(=O)[C@H](C)[C@@H](O[C@@H]2O[C@H](C)C[C@H](N(C)C)[C@H]2O)[C@@](C)(OCC=Cc2cnc3ccccc3c2)C[C@@H](C)C(=O)[C@H](C)[C@H]2N(N)C(=O)O[C@]12C
2. CC[C@H]1OC(=O)[C@H](C)C(=O)[C@H](C)[C@@H](O[C@@H]2O[C@H](C)C[C@H](N(C)C)[C@H]2O)[C@@](C)(OCC=Cc2ccc3ncc(Br)cc3c2)C[C@@H](C)C(=O)[C@H](C)[C@H]2NC(=O)O[C@@]21C
3. CCC1OC(=O)C(C)C(=O)C(C)C(OC2OC(C)CC(N(C)C)C2O)C(C)(OCC=Cc2cnc3ccc(O)cc3c2)CC(C)C(=O)C(C)C2NC(=O)OC12C (stereo not drawn) [Example 208, R is —CH2CH═CH-(6-hydroxy-3-quinolyl)]
4. CCC1OC(=O)C(C)C(=O)C(C)C(OC2OC(C)CC(N(C)C)C2O)C(C)(OCC=Cc2ccc3ncc(-c4cccs4)cc3c2)CC(C)C(=O)C(C)C2NC(=O)OC12C (stereo not drawn)
5. CCC1OC(=O)C(C)C(=O)C(C)C(OC2OC(C)CC(N(C)C)C2O)C(C)(OCC=Cc2cnc3ccc(NC(C)=O)cc3c2)CC(C)C(=O)C(C)C2NC(=O)OC12C (stereo not drawn)
6. CCC1OC(=O)C(C)C(=O)C(C)C(OC2OC(C)CC(N(C)C)C2O)C(C)(OCC=Cc2cnc3c([N+](=O)[O-])cccc3c2)CC(C)C(=O)C(C)C2NC(=O)OC12C (stereo not drawn)

1. 0.1
2. 0.2
3. 0.2
4. 0.2
5. 0.2
6. 0.1

====

system: up to 32 different microorganisms; assay: in vitro antibacterial activity (MIC), agar dilution on Brain Heart Infusion (BHI) agar with Steers replicator; assay type: cell-based; details: organism code QQ; unit assumed
measured-quantity: MIC (µg/mL)
One number for each entry, in µg/mL.

Look over these answered cases.
Under up to 32 different microorganisms: MIC value of CC[C@H]1OC(=O)[C@H](C)C(=O)[C@H](C)[C@@H](O[C@@H]2O[C@H](C)C[C@H](N(C)C)[C@H]2O)[C@@](C)(OCC#Cc2ccc(C(=O)Nc3ccccn3)o2)C[C@@H](C)C(=O)[C@H](C)[C@H]2NC(=O)O[C@@]21C ?
100

Param readout = MIC; param system = up to 32 different microorganisms; param query = CC[C@H]1OC(=O)[C@H](C)C(=O)[C@H](C)[C@@H](O[C@@H]2O[C@H](C)C[C@H](N(C)C)[C@H]2O)[C@@](C)(OCC=NOCc2ccc3ccccc3c2)C[C@@H](C)C(=O)[C@H](C)[C@H]2NC(=O)O[C@@]21C ; response: value
50

// lookup MIC | system=up to 32 different microorganisms | key= CCC1OC(=O)C(C)C(=O)C(C)C(OC2OC(C)CC(N(C)C)C2O)C(C)(OCC=Cc2cc3nccnc3cc2[N+](=O)[O-])CC(C)C(=O)C(C)C2NC(=O)OC12C (stereo not drawn)
50

API: value(readout= MIC, system= up to 32 different microorganisms, query= CCC1OC(=O)C(C)C(=O)C(C)C(OC2OC(C)CC(N(C)C)C2O)C(C)(OCC=Cc2cnc3ccc(OC)cc3c2)CC(C)C(=O)C(C)C2NC(=O)OC12C (stereo not drawn) )
100

---
Give up to 32 different microorganisms MIC for CC[C@H]1OC(=O)[C@H](C)C(=O)[C@H](C)[C@@H](O[C@@H]2O[C@H](C)C[C@H](N(C)C)[C@H]2O)[C@@](C)(OCC#Cc2ccc3nc(C)ccc3c2)C[C@@H](C)C(=O)[C@H](C)[C@H]2NC(=O)O[C@@]21C
100
